Source listed as ChEMBL document CHEMBL5370533.

Biological target: Receptor-type tyrosine-protein kinase FLT3 (Homo sapiens, UniProt P36888)
Experiment: Binding affinity to FLT3 (unknown origin)
QUANTITY MEASURED: Kd (nM)
Answer format: numeric, nM implied, no suffix.

Q. Consider the compound shown here: O=C(Nc1ccc(N2CCNCC2)cc1)c1n[nH]cc1Nc1cc(Oc2ccccc2)ncn1 What is its recorded Kd?
A. 22.1

###

Assay: Half life in rat at 10 mg/kg, po
Format: ADME, organism-based
Settings: in vivo
QUANTITY MEASURED: half-life (h)
Answer format: numeric, h implied, no suffix.

Q. Consider the compound shown here: O=C(Nc1ccc(N2CCNCC2)cc1)c1n[nH]cc1Nc1cc(Oc2ccccc2)ncn1 What is its recorded half-life?
A. 3.5

###

Target: Receptor-type tyrosine-protein kinase FLT3 (Homo sapiens, UniProt P36888, R834Q)
Test: Binding affinity to FLT3 R834Q mutant (unknown origin)
QUANTITY MEASURED: pKd
When answering, recall that pKd equals minus log10 of the concentration in mol/L, and write that number alone.

Q. Consider the molecule shown here: O=C(Nc1ccc(N2CCNCC2)cc1)c1n[nH]cc1Nc1cc(Oc2ccccc2)ncn1 What is its recorded pKd?
A. 7.18

###

Assay: Cmax in Beagle dog at […], po
Format: ADME, organism-based, Canis lupus familiaris
Set-up: dose 1.5 mg/kg, route po
Settings: in vivo
QUANTITY MEASURED: Cmax (µg/mL)
Answer format: numeric, µg/mL implied, no suffix.

Q. Consider the compound shown here: O=C(Nc1ccc(N2CCNCC2)cc1)c1n[nH]cc1Nc1cc(Oc2ccccc2)ncn1 What is its recorded Cmax?
A. 0.0521

###

Molecular target: Receptor-type tyrosine-protein kinase FLT3 (Homo sapiens, UniProt P36888, D835H)
Assay: Binding affinity to FLT3 D835H mutant (unknown origin)
QUANTITY MEASURED: pKd
When answering, recall that pKd equals minus log10 of the concentration in mol/L, and write that number alone.

Q. Param readout= pKd; system= Receptor-type tyrosine-protein kinase FLT3 (Homo sapiens, UniProt P36888, D835H); entry= O=C(Nc1ccc(N2CCNCC2)cc1)c1n[nH]cc1Nc1cc(Oc2ccccc2)ncn1 ; returns value.
A. 7.31

###

Target: Receptor-type tyrosine-protein kinase FLT3 (Homo sapiens, UniProt P36888, D835V)
Test: Binding affinity to FLT3 D835V mutant (unknown origin)
QUANTITY MEASURED: Kd (nM)
Answer format: numeric, nM implied, no suffix.

Q. Consider the molecule shown here: O=C(Nc1ccc(N2CCNCC2)cc1)c1n[nH]cc1Nc1cc(Oc2ccccc2)ncn1 What is its recorded Kd?
A. 1.54

###

System: MV4-11
Assay: Antiproliferative activity against human MV4-11 cells harboring FLT3 ITD mutant assessed as inhibition of cell growth incubated for 72 hrs by CellTiter-Glo luminescent assay
Type: functional, cell-based
Settings: MV4-11, 72 h
QUANTITY MEASURED: pIC50
When answering, recall that pIC50 equals minus log10 of the concentration in mol/L, and write that number alone.

Q. Param readout= pIC50; system= MV4-11; entry= O=C(Nc1ccc(N2CCNCC2)cc1)c1n[nH]cc1Nc1cc(C2CCCC2)ncn1 ; returns value.
A. 7.00

Q. Param readout= pIC50; system= MV4-11; entry= CC(C)(C)c1cc(NC(=O)Nc2ccc(-c3cn4c(n3)sc3cc(OCCN5CCOCC5)ccc34)cc2)no1 ; returns value.
A. 8.28

Q. Param readout= pIC50; system= MV4-11; entry= CN1CCN(Cc2ccc(NC(=O)c3n[nH]cc3Nc3ncnc4[nH]ccc34)cc2)CC1 ; returns value.
A. 8.15

More entries:
Q. Param readout= pIC50; system= MV4-11; entry= O=C(Nc1ccc(N2CCNCC2)cc1)c1n[nH]cc1Nc1cc(OCC2CCCC2)ncn1 ; returns value.
A. 7.05

Q. Param readout= pIC50; system= MV4-11; entry= O=C(Nc1ccc(CN2CCOCC2)cc1)c1n[nH]cc1Nc1cc(C2CCCC2)ncn1 ; returns value.
A. 6.68

Q. Param readout= pIC50; system= MV4-11; entry= CN1CCN(Cc2ccc(NC(=O)c3n[nH]cc3Nc3cc(C4CCCC4)ncn3)cc2)CC1 ; returns value.
A. 6.70

Q. Param readout= pIC50; system= MV4-11; entry= O=C(Nc1ccc(N2CCNCC2)cc1)c1n[nH]cc1Nc1cc(Oc2ccccc2)ncn1 ; returns value.
A. 7.82

Q. Param readout= pIC50; system= MV4-11; entry= O=C(Nc1ccc(N2CCNCC2)cc1)c1n[nH]cc1Nc1cc(C2CC2)ncn1 ; returns value.
A. 7.10

Q. Param readout= pIC50; system= MV4-11; entry= O=C(Nc1ccc(N2CCNCC2)cc1)c1n[nH]cc1Nc1cc(OC2CCCC2)ncn1 ; returns value.
A. 6.96

Q. Param readout= pIC50; system= MV4-11; entry= O=C(Nc1ccc(N2CCNCC2)cc1)c1n[nH]cc1Nc1cc(NC2CCCC2)ncn1 ; returns value.
A. 7.00

Q. Param readout= pIC50; system= MV4-11; entry= O=C(Nc1ccc(N2CCNCC2)cc1)c1n[nH]cc1Nc1cc(OC2CCCCC2)ncn1 ; returns value.
A. 6.89
